# Experimental target: mRARβ (Mus musculus)
# Construct: made in house; host or cells: Spodoptera frugiperda insect cells, baculovirus (whole cell extract)
# Sequence (P22605 1-448 isoform P22605-3): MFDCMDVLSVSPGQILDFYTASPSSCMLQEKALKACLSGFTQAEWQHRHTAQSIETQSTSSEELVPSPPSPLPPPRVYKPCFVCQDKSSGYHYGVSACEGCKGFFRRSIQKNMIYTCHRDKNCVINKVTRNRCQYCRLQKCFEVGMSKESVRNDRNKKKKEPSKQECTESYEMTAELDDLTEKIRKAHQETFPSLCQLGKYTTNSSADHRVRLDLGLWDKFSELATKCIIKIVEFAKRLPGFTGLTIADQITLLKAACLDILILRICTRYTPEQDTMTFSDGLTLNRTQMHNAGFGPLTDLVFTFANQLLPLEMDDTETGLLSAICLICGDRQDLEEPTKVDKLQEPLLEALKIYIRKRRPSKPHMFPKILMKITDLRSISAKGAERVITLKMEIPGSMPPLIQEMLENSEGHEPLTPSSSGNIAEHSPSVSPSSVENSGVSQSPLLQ
# Method description: Drug competition with (3H)retinoic acid binding, mRARβ
# Applied conditions: read-out: percent reduction of binding of the (3H)retinoic acid, mRARβ; 1 μM drug; 5 nM [3H]RA
Item-by-item account of inhibition at 1 µM
Reply with just the number (in %).

State the recorded inhibition at 1 µM for this entry: CC1=C(/C=C/C(C)=C/C=C/C(C)=C/C(=O)Nc2ccc([C@@H]3O[C@H](C(=O)O)[C@@H](O)[C@H](O)[C@H]3O)cc2)C(C)(C)CCC1 [4-(retinamido)phenyl-C-glucuronide]
47

====

# Experimental target: mRARα (Mus musculus)
# Construct: made in house; host or cells: Spodoptera frugiperda insect cells, baculovirus (whole cell extract)
# Sequence (P11416 whole entry): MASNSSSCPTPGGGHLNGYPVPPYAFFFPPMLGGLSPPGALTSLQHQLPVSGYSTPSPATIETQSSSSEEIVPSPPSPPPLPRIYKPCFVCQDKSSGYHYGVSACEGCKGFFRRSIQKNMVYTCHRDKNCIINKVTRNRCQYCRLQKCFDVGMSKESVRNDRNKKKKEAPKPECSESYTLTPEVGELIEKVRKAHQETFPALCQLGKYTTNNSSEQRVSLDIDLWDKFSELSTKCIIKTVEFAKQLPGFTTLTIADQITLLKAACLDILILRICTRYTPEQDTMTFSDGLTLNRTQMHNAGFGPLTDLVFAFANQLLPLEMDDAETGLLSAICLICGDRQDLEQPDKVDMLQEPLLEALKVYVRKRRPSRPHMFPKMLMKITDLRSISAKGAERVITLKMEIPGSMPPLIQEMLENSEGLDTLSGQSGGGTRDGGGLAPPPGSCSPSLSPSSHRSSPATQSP
# Method description: Drug competition with (3H)retinoic acid binding, mRARα
# Applied conditions: read-out: percent reduction of binding of the (3H)retinoic acid, mRARα; 1 μM drug; 5 nM [3H]RA
Property: inhibition at 1 µM; scope: individual compounds
Give the value; after it, write the unit.

>  <Compound>
CC1=C(/C=C/C(C)=C/C=C/C(C)=C/C(=O)Nc2ccc([C@@H]3O[C@H](C(=O)O)[C@@H](O)[C@H](O)[C@H]3O)cc2)C(C)(C)CCC1 [4-(retinamido)phenyl-C-glucuronide]

>  <inhibition at 1 µM>
48%

$$$$

Look up inhibition at 1 µM for this compound: CC1=C(/C=C/C(C)=C/C=C/C(C)=C/C(=O)Nc2ccc(O[C@@H]3O[C@H](C(=O)O)[C@@H](O)[C@H](O)[C@H]3O)cc2)C(C)(C)CCC1 [4-HPR-O-glucuronide, reference compound]
14%

Subsequent entry: CC1=C(/C=C/C(C)=C/C=C/C(C)=C/C(=O)Nc2ccc(C[C@@H]3O[C@H](CO)[C@@H](O)[C@H](O)[C@H]3O)cc2)C(C)(C)CCC1 [4-(retinamido)benzyl-C-glucoside]
56%

====

# Tested on: MCF-7 cells
# Method description: Growth inhibition of MCF-7 human mammary tumor cells
# Type: cell-based
# Applied conditions: Homo sapiens, MCF7, 168 h, Assay 3; 7 days; read-out: ED50 for growth inhibition of MCF-7 cells
Measure: IC50 (µM)
Give the value, in units of µM, as a plain number.

>  <Compound>
CC1=C(/C=C/C(C)=C/C=C/C(C)=C/C(=O)Nc2ccc([C@@H]3O[C@H](C(=O)O)[C@@H](O)[C@H](O)[C@H]3O)cc2)C(C)(C)CCC1 [4-(retinamido)phenyl-C-glucuronide]

>  <Experimental target>
MCF-7 cells

>  <Unit annotation>
µM

>  <IC50>
50

$$$$

Okay, next one:
Which IC50 is reported for this compound? CC1=C(/C=C/C(C)=C/C=C/C(C)=C/C(=O)Nc2ccc(O)cc2)C(C)(C)CCC1 [Example 4-HPR, N-(4-hydroxyphenyl) retinamide, reference compound]
33

====

# Experimental target: mRARβ (Mus musculus)
# Construct: made in house; host or cells: Spodoptera frugiperda insect cells, baculovirus (whole cell extract)
# Method description: Drug competition with (3H)retinoic acid binding, mRARβ
# Applied conditions: read-out: percent reduction of binding of the (3H)retinoic acid, mRARβ; 1 μM drug; 5 nM [3H]RA
Label rule, in plain words: inhibition at 1 µM of 60% and up is Satisfied, under 60% is Not satisfied.

>  <Molecule>
CC1=C(/C=C/C(C)=C/C=C/C(C)=C/C(=O)Nc2ccc(C[C@@H]3O[C@H](CO)[C@@H](O)[C@H](O)[C@H]3O)cc2)C(C)(C)CCC1 [4-(retinamido)benzyl-C-glucoside]

>  <Qualitative label>
Satisfied

$$$$
>  <Molecule>
CC1=C(/C=C/C(C)=C/C=C/C(C)=C/C(=O)Nc2ccc(C[C@@H]3OC[C@@H](O)[C@H](O)[C@H]3O)cc2)C(C)(C)CCC1 [4-(retinamido)benzyl-C-xyloside]

>  <Qualitative label>
Not satisfied

$$$$
>  <Molecule>
CC1=C(/C=C/C(C)=C/C=C/C(C)=C/C(=O)Nc2ccc(O)cc2)C(C)(C)CCC1 [Example 4-HPR, N-(4-hydroxyphenyl) retinamide, reference compound]

>  <Qualitative label>
Not satisfied

$$$$
>  <Molecule>
CC1=C(/C=C/C(C)=C/C=C/C(C)=C/C(=O)Nc2ccc(O[C@@H]3O[C@H](C(=O)O)[C@@H](O)[C@H](O)[C@H]3O)cc2)C(C)(C)CCC1 [4-HPR-O-glucuronide, reference compound]

>  <Qualitative label>
Not satisfied

$$$$

Test whether the molecule CC1=C(/C=C/C(C)=C/C=C/C(C)=C/C(=O)Nc2ccc(C[C@@H]3O[C@H](C(=O)O)[C@@H](O)[C@H](O)[C@H]3O)cc2)C(C)(C)CCC1 [4-(retinamido)benzyl-C-glucuronide] records inhibition at 1 µM of 60% or higher.
Satisfied
